Target: hPPARγ (Homo sapiens, UniProt P37231)
Construct: corresponding to the DEF domains (structural elements of the promoter of the PPARs: D=hinge, EF=ligand fixation domain and AF2 fixation site); expressed in transfected cells; host or cells: COS-7 (monkey kidney fibroblasts)
Sequence (P37231 238-503 limits assumed): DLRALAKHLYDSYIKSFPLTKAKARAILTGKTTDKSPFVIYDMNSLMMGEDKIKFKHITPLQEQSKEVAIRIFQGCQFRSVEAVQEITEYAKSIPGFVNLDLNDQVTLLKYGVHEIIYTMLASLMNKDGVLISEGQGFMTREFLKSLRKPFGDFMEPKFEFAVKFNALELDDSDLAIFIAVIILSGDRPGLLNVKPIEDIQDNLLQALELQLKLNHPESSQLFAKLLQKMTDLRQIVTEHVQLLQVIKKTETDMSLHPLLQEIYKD
Assay: Gal4-hPPARγ chimera transactivation (luciferase) in COS-7 cells
Format: cell-based
Conditions: relative to maximum activation obtained with rosiglitazone, 24 hours, read-out: PPARγ TOP % (maximum activation)
Method: Activation of PPARs is evaluated in vitro on a line of monkey kidney fibroblasts (COS-7) by measuring the transcriptional activity of chimeras consisting of the DNA binding domain of Gal4 transcription factor of yeast and of the ligand binding domain of the various PPARs of human origin (hPPAR). […] The test data are summarized in Table 8-1 below, which presents, for each compound, the values of maximum activation (TOP %) and the EC50 values measured for each isoform of PPAR.
observable: Emax (%)
State just the number; it will be interpreted in %.

Examples from the recorded data:
compound | numeric_result
COc1ncc(-c2ccccc2)cc1CNc1ccc(SCC(=O)O)cc1 | 208
COc1nc(-c2ccccc2)ccc1CNc1ccc(OC(C)C(=O)O)cc1 (centres unmarked) | 57.3
CC#CC(CC(=O)O)c1ccc(OCc2cc(-c3ccccc3)cnc2OC)cc1 (centres unmarked) | 54.8
COc1nc(-c2ccccc2)ccc1CNc1ccc(OC(C)(C)C(=O)O)cc1 | 44.9
COc1nc(-c2ccccc2)ccc1CNc1ccc(SC(F)(F)C(=O)O)cc1 | 98.7

### Prompt Entry under review: `CC(C)(C)Oc1nc(-c2ccccc2)ccc1CNc1ccc(OC(C)(C)C(=O)O)cc1` . Reported Emax?
### Response 23.9

### Prompt Entry under review: `COc1ncc(-c2ccc3ccccc3c2)cc1CNc1ccc(CCC(=O)O)cc1` . Reported Emax?
### Response 63.7

### Prompt Entry under review: `O=C(O)COc1ccc(OCc2ccc(-c3ccccc3)nc2N2CCCCC2)cc1` . Reported Emax?
### Response 43

### Prompt Entry under review: `COc1nc(-c2ccccc2)c(Br)cc1CNc1ccc(SCC(=O)O)cc1` . Reported Emax?
### Response 57.7

### Prompt Entry under review: `CCSc1nc(-c2ccccc2)ccc1CNc1ccc(CCC(=O)O)cc1` . Reported Emax?
### Response 45.4

### Prompt Entry under review: `COc1ncc(-c2ccc(Cl)cc2)cc1CNc1ccc(CCC(=O)O)cc1` . Reported Emax?
### Response 73.2

### Prompt Entry under review: `COc1ncc(-c2cccc(C(F)(F)F)c2)cc1CNc1ccc(CCC(=O)O)cc1` . Reported Emax?
### Response 85

###

Biological target: hPPARα (Homo sapiens)
Construct: corresponding to the DEF domains (structural elements of the promoter of the PPARs: D=hinge, EF=ligand fixation domain and AF2 fixation site); expressed in transfected cells; host or cells: COS-7 (monkey kidney fibroblasts)
Sequence (Q07869 239-466 limits assumed): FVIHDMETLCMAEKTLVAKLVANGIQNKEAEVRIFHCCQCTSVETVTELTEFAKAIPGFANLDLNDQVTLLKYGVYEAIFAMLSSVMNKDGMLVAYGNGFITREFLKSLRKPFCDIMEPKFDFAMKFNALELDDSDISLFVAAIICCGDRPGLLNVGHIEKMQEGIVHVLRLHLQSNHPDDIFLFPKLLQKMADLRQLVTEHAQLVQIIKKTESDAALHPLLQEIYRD
Assay: Gal4-hPPARα chimera transactivation (luciferase) in COS-7 cells
Assay type: cell-based
Settings: relative to maximum activation obtained with fenofibric acid; COS-7 cells, Gal4-hPPARα, 24 hours; read-out: PPARα TOP % (maximum activation)
Binary call on Emax: True from 60% upward, False beneath that.

Worked cases, answers included:
compound | target_under_test | category
COc1nc(-c2ccccc2)ccc1CNc1cc(C)c(OCC(=O)O)c(C)c1 [Cpd 35] | hPPARα (Homo sapiens) | False
CCC(Nc1ccc(CCC(=O)O)cc1)c1ccc(-c2ccccc2)nc1OC (stereo not shown) [Cpd 34] | hPPARα (Homo sapiens) | True
O=C(O)COc1ccc(OCc2ccc(-c3ccccc3)nc2N2CCCCC2)cc1 [Cpd 20] | hPPARα (Homo sapiens) | False
COc1ncc(-c2ccc(Cl)cc2)cc1CNc1ccc(CCC(=O)O)cc1 [Cpd 49] | hPPARα (Homo sapiens) | False
COc1nc(-c2ccccc2)ccc1CNc1ccc(SC(C)(C)C(=O)O)cc1 [Cpd 11] | hPPARα (Homo sapiens) | True

### Prompt Is Emax for COc1nc(-c2ccc(-c3ccccc3)cc2)ccc1CNc1ccc(CCC(=O)O)cc1 [Cpd 39] at or above 60%?
### Response False

### Prompt Is Emax for COc1ncc(-c2ccc3ccccc3c2)cc1CNc1ccc(CCC(=O)O)cc1 [Cpd 50] at or above 60%?
### Response False

### Prompt Is Emax for COc1nc(OC)c(-c2ccccc2)cc1CNc1ccc(CCC(=O)O)cc1 [Cpd 48] at or above 60%?
### Response False

### Prompt Is Emax for COc1nc(-c2ccccc2)ccc1CNc1ccc(SC(C(=O)O)c2ccccc2)cc1 (stereo not shown) [Cpd 32] at or above 60%?
### Response True

### Prompt Is Emax for COc1nc(-c2ccccc2)ccc1CNc1cccc(OC(C)(C)C(=O)O)c1 [Cpd 13] at or above 60%?
### Response True

### Prompt Is Emax for COc1nc(-c2ccc(C(F)(F)F)cc2)ccc1COc1ccc(OC(C)(C)C(=O)O)cc1 [Cpd 21] at or above 60%?
### Response True

### Prompt Is Emax for COc1ncc(-c2ccccc2)cc1CNc1ccc(CCC(=O)O)cc1 [Cpd 41] at or above 60%?
### Response False
